variants and their reported exon inclusion enrichment index
B1: mRNA-splicing (parent)
chain: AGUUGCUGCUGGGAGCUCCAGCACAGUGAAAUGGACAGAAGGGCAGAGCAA

variants of: B1; assay: exon inclusion enrichment index; higher = more inclusion; WT1 exon 5 minigene, HEK293

{"mutant.code": "C36A A37U", "value.measured": 0.0531}

q: Which exon inclusion enrichment index is listed for C6A U7C C9A U10C C18A ?
a: 2.64

q: Which exon inclusion enrichment index is listed for G5A C6U U7C U10C ?
a: 3.3

q: Which exon inclusion enrichment index is listed for G5A C6U U7A G8U C9A A14U G15U ?
a: 0.00593

q: Which exon inclusion enrichment index is listed for G5C C6U G8C C9U U10C C22G ?
a: 2.51

The values you see were collected from the RNAGym collection of RNA variant scans (doi:10.1101/gr.219683.116).
